target: P236L HIV-1 RT DNA-dependent DNA polymerase activity (Human immunodeficiency virus type 1 group M subtype B, UniProt P04585, P823L); construct: made in house; test: biochemical; type: biochemical
measured.parameter: IC50 (µM)
Note: unit µM is implicit; provide only the numeric part.

Solved cases below.
Would you kindly share the measured IC50 for "CCOC(=O)Cc1csc(-n2sc3ccccc3c2=O)n1" ?
5.13

Request the reported IC50 associated with "Cc1ccc(-n2sc3ccccc3c2=O)cc1S(=O)(=O)N1CCCCC1"
2.22

# context switch: different compound, same IC50
What value of IC50 has been reported for the following compound? "CCN(CC)S(=O)(=O)c1cccc(-n2sc3ccccc3c2=O)c1"
1.6

###

The entries below are paired with their reported pIC50.
biological target: Y188C HIV-1 RT RNase H activity (Human immunodeficiency virus type 1 group M subtype B, UniProt P04585, Y775C); assay: FRET-based RT RNase H cleavage assay, Y188C RT
For clarity, pIC50 is expressed as the negative log10 of concentration in mol/L.

Field: example entries. Status: answers known.
pIC50 for "CCN(CC)S(=O)(=O)c1cccc(-n2sc3ccccc3c2=O)c1" ?
5.96

Report pIC50 for O=c1c(O)ccccc1O [Compound 19619, reference compound] please.
5.26

Entry Cn1sc2ccccc2c1=O [Compound 3, 2-methylbenzo[d]isothiazol-3(2H)-one] : reported pIC50 = ?
5.24

Fill in the blank: the reported pIC50 of "Cc1ccc(-n2sc3ccccc3c2=O)cc1S(=O)(=O)N1CCCCC1" is ____.
6.49

Continuing:
Bench note: what pIC50 did "CCOC(=O)Cc1csc(-n2sc3ccccc3c2=O)n1" show?
6.23

###

molecular target: G190A HIV-1 RT RNase H activity (Human immunodeficiency virus type 1 group M subtype B, UniProt P04585, G777A); construct: made in house; assay: FRET-based RT RNase H cleavage assay, G190A RT; format: biochemical
pIC50: −log10 of the molar value.
Entry flag: yes if pIC50 reaches 6; no if it does not.

Does the compound Cc1ccc(-n2sc3ccccc3c2=O)cc1S(=O)(=O)N1CCCCC1 [Compound 1] have recorded pIC50 that is 6 or more?
yes

Check this compound for pIC50 at or above 6: CCOC(=O)Cc1csc(-n2sc3ccccc3c2=O)n1 [Compound 2]
yes

Please indicate if the recorded pIC50 for O=c1c(O)ccccc1O [Compound 19619, reference compound] meets or exceeds 6.
no

Say whether Cn1sc2ccccc2c1=O [Compound 3, 2-methylbenzo[d]isothiazol-3(2H)-one] shows pIC50 of 6 or more.
no

Attention now shifts to the item below.
Dear colleague, could you confirm whether CCN(CC)S(=O)(=O)c1cccc(-n2sc3ccccc3c2=O)c1 [Compound 4] has pIC50 at or above 6?
yes

###

System: Y188C HIV-1 RT RNase H activity
Test: FRET-based RT RNase H cleavage assay, Y188C RT
Format: biochemical
Conditions: Y188C RT; fold resistance IC50 mutant/IC50 WT
Experimental: WT (wild-type) RT, and RTs harboring the NNRTI-resistant mutations K101E, K103N, Y181C, Y188C, G190A and P236L, were overexpressed and purified to homogeneity as described previously. The RT concentration was determined spectrophotometrically at 280 nm using an absorbance coefficient of 260,450 M^−1·cm^−1. […] The FRET-based RNase H cleavage assays were carried out as described previously. […] Data were analyzed using SoftMax Pro software, version 4.7.1 (Molecular Devices, San Jose, CA, USA).
measured.parameter: Inhibition of RT RNase H Activity Fold-R

Below, 4 compounds whose answers are already recorded.
Recorded Inhibition of RT RNase H Activity Fold-R for "CCN(CC)S(=O)(=O)c1cccc(-n2sc3ccccc3c2=O)c1" , please?
4.2

Form field: reported Inhibition of RT RNase H Activity Fold-R of O=c1c(O)ccccc1O [Compound 19619, reference compound]
0.6

Fill in the blank: the reported Inhibition of RT RNase H Activity Fold-R of Cn1sc2ccccc2c1=O [Compound 3, 2-methylbenzo[d]isothiazol-3(2H)-one] is ____.
2.3

I am curious: what Inhibition of RT RNase H Activity Fold-R value has been reported for "CCOC(=O)Cc1csc(-n2sc3ccccc3c2=O)n1" ?
4.5

Let's switch to this compound now.
What Inhibition of RT RNase H Activity Fold-R value was documented for this compound, "Cc1ccc(-n2sc3ccccc3c2=O)cc1S(=O)(=O)N1CCCCC1" ?
2.0
